Provenance of the data: patent US20110086759A1

Test system: Alopecurus myosuroides (ALOMY)
protocol: Pre-emergence biological efficacy, glasshouse pot test
Assay type: in vivo
run_conditions: 312 h, pre-emergence, rate 1,000 g/ha, evaluated after 13 days (100=total damage to plant; 0=no damage), read-out: Percentage damage caused to weed species, ALOMY
measurement_type: pest or weed control at 1000 g/ha (%)
Express your answer in %, writing the number without its unit.

[ask] Which measured pest or weed control at 1000 g/ha value corresponds to `C=CCN(Cc1ccc(Cl)s1)c1nc(C2CC2)nc(C(=O)OC)c1Cl` ?
[reply] 10

[ask] Which measured pest or weed control at 1000 g/ha value corresponds to `COC(=O)c1nc(-c2ccc(OC)c(OC)c2)nc(NCc2ccco2)c1Cl` ?
[reply] 0

[ask] Which measured pest or weed control at 1000 g/ha value corresponds to `COC(=O)c1nc(C2CC2)nc(N(C)Cc2ccc(Cl)cc2)c1Cl` ?
[reply] 10

[ask] Which measured pest or weed control at 1000 g/ha value corresponds to `C=CCN(Cc1cccc(OC)c1OC)c1nc(C2CC2)nc(C(=O)OC)c1Cl` ?
[reply] 0

[ask] Which measured pest or weed control at 1000 g/ha value corresponds to `COC(=O)c1nc(C2CC2)nc(N(C)Cc2ccc(C)cc2)c1Cl` ?
[reply] 0

[ask] Which measured pest or weed control at 1000 g/ha value corresponds to `NC(=O)c1nc(C2CC2)nc(NCc2ccco2)c1Cl` ?
[reply] 20

[ask] Which measured pest or weed control at 1000 g/ha value corresponds to `COC(=O)c1nc(-c2ccc(Cl)cc2)nc(NCc2ccccc2)c1Cl` ?
[reply] 20

[ask] Which measured pest or weed control at 1000 g/ha value corresponds to `COC(=O)c1nc(-c2ccc(F)c(OC)c2)nc(NCc2ccco2)c1Cl` ?
[reply] 10

[ask] Which measured pest or weed control at 1000 g/ha value corresponds to `COC(=O)c1nc(Cl)nc(NCC2CC2)c1Cl` ?
[reply] 0

----------
Exercise: for every item that follows, state its recorded pest or weed control at 1000 g/ha.
Tested on: Alopecurus myosuroides (ALOMY)
protocol: Pre-emergence biological efficacy, glasshouse pot test
Format: in vivo
run_conditions: 312 h, pre-emergence, rate 1,000 g/ha, evaluated after 13 days (100=total damage to plant; 0=no damage), read-out: Percentage damage caused to weed species, ALOMY
Express your answer in %, writing the number without its unit.

[ask] Which measured pest or weed control at 1000 g/ha value corresponds to `COC(=O)c1nc(C2CC2)nc(N(C)Cc2ccc(F)cc2)c1Cl` ?
[reply] 30

[ask] Which measured pest or weed control at 1000 g/ha value corresponds to `COC(=O)c1nc(-c2ccc(C(F)(F)F)cc2)nc(NCc2ccco2)c1Cl` ?
[reply] 30

[ask] Which measured pest or weed control at 1000 g/ha value corresponds to `COC(=O)c1nc(C2CC2)nc(N(C)CCc2ccccn2)c1Cl` ?
[reply] 0

[ask] Which measured pest or weed control at 1000 g/ha value corresponds to `COC(=O)c1nc(-c2ccc(Cl)c(Cl)c2F)nc(NCc2ccco2)c1Cl` ?
[reply] 50

[ask] Which measured pest or weed control at 1000 g/ha value corresponds to `O=C(NCc1ccccc1)c1nc(C2CC2)nc(NCc2ccccc2)c1Cl` ?
[reply] 0

[ask] Which measured pest or weed control at 1000 g/ha value corresponds to `COC(=O)c1nc(Cl)nc(NCc2ccccc2)c1Cl` ?
[reply] 10

[ask] Which measured pest or weed control at 1000 g/ha value corresponds to `COC(=O)c1nc(-c2ccc(OC)cc2)nc(NCc2ccco2)c1Cl` ?
[reply] 0

[ask] Which measured pest or weed control at 1000 g/ha value corresponds to `COC(=O)c1nc(C2CC2)nc(N(C)CC2OCCO2)c1Cl` ?
[reply] 0

[ask] Which measured pest or weed control at 1000 g/ha value corresponds to `COC(=O)c1nc(C2CC2)nc(N(C)Cc2ccccc2F)c1Cl` ?
[reply] 10

----------
Test system: Alopecurus myosuroides (ALOMY)
protocol: Post-emergence biological efficacy, glasshouse pot test
Type: in vivo
run_conditions: 312 h, post-emergence, 1,000 g/ha, evaluated after 13 days (100=total damage; 0=no damage), read-out: Percentage damage caused to weed species, ALOMY
Procedure: Seeds of Alopecurus myosuroides (ALOMY), Setaria faberi (SETFA), Echinochloa crus-galli (ECHCG), Solanum nigrum (SOLNI), Amaranthus retoflexus (AMARE) and Ipomea hederaceae (IPOHE) were sown in standard soil in pots. […] The test plants were then grown on under controlled conditions in a glasshouse (at 24/16° C., day/night; 14 hours light; 65% humidity) and watered twice daily. After 13 days the test was evaluated (100=total damage to plant; 0=no damage to plant).
Exercise: for every item that follows, state its recorded pest or weed control at 1000 g/ha.

[ask] Which measured pest or weed control at 1000 g/ha value corresponds to COC(=O)c1nc(C2CC2)nc(NC(C)COc2ccccc2)c1Cl (stereo not drawn) [Compound 4-268] ?
[reply] 10%

[ask] Which measured pest or weed control at 1000 g/ha value corresponds to COC(=O)c1nc(C2CC2)nc(NCCc2cc(C(F)(F)F)cc(Cl)n2)c1Cl [Compound 4-229] ?
[reply] 10%

[ask] Which measured pest or weed control at 1000 g/ha value corresponds to COC(=O)c1nc(C2CC2)nc(N[C@@H](CO)c2ccccc2)c1Cl [4-203 (R)] ?
[reply] 20%

[ask] Which measured pest or weed control at 1000 g/ha value corresponds to COC(=O)c1nc(C2CC2)nc(NCc2ccc(F)cc2F)c1Cl [Compound 4-97] ?
[reply] 20%

[ask] Which measured pest or weed control at 1000 g/ha value corresponds to COC(=O)c1nc(C2CC2)nc(NCC2CCN(OC(=O)C(C)(C)C)CC2)c1Cl [Compound 4-58] ?
[reply] 0%

[ask] Which measured pest or weed control at 1000 g/ha value corresponds to COC(=O)c1nc(C2CC2)nc(NCc2ccc(Br)o2)c1Cl [Compound 4-129] ?
[reply] 40%

[ask] Which measured pest or weed control at 1000 g/ha value corresponds to COC(=O)c1nc(C2CC2)nc(NCC2(OC)C=CC(OC)O2)c1Cl (stereo not drawn) [Compound 4-55] ?
[reply] 10%

[ask] Which measured pest or weed control at 1000 g/ha value corresponds to COC(=O)c1nc(C2CC2)nc(NCc2ncc(C(F)(F)F)cc2Cl)c1Cl [Compound 4-155] ?
[reply] 30%

[ask] Which measured pest or weed control at 1000 g/ha value corresponds to COC(=O)c1nc(C2CC2)nc(N[C@@H](CC2CCCCC2)C(=O)OC)c1Cl [4-282 (S)] ?
[reply] 20%

[ask] Which measured pest or weed control at 1000 g/ha value corresponds to COC(=O)c1nc(C2CC2)nc(N[C@H](CO)[C@H](O)c2ccc([N+](=O)[O-])cc2)c1Cl [4-275 (R,R)] ?
[reply] 30%

[ask] Which measured pest or weed control at 1000 g/ha value corresponds to COC(=O)c1nc(C2CC2)nc(N[C@H](C)c2cccc3ccccc23)c1Cl [4-184 (R)] ?
[reply] 10%

[ask] Which measured pest or weed control at 1000 g/ha value corresponds to COC(=O)c1nc(C2CC2)nc(NCc2cnc(Cl)s2)c1Cl [Compound 4-146] ?
[reply] 20%

[ask] Which measured pest or weed control at 1000 g/ha value corresponds to COC(=O)c1nc(C2CC2)nc(NCc2ccc(N)cc2)c1Cl [Compound 4-86] ?
[reply] 50%

[ask] Which measured pest or weed control at 1000 g/ha value corresponds to COC(=O)c1nc(C2CC2)nc(NC(CO)c2ccccc2)c1Cl (stereo not drawn) [Compound 4-203] ?
[reply] 40%

[ask] Which measured pest or weed control at 1000 g/ha value corresponds to COC(=O)c1nc(C2CC2)nc(NCc2cc3cc(Br)ccc3o2)c1Cl [Compound 4-164] ?
[reply] 30%

[ask] Which measured pest or weed control at 1000 g/ha value corresponds to COc1ccc(CNc2nc(C3CC3)nc(C(=O)O)c2Cl)c(OC)c1 [Compound 1-110] ?
[reply] 30%

[ask] Which measured pest or weed control at 1000 g/ha value corresponds to O=C(O)c1nc(C2CC2)nc(NC2CCCCC2)c1Cl [Compound 1-35] ?
[reply] 10%

[ask] Which measured pest or weed control at 1000 g/ha value corresponds to COC(=O)c1nc(C2CC2)nc(NC2(/C=C/c3cccs3)CC2)c1Cl [Compound 4-23] ?
[reply] 20%
